The values you see were collected from the supplement of paper PMC13380429.

test system: Vero E6 infected with SARS-CoV-2; experiment: inhibition of SARS-CoV-2 cytopathic effect; higher = more antiviral protection, active = above 15; conditions: 100 nM; 48 h
This listing pairs compounds with measured inhibition of SARS-CoV-2 cytopathic effect.

// worked examples, inhibition of SARS-CoV-2 cytopathic effect included
Cc1ccc(C(=O)Nc2cccc(C(F)(F)F)c2)cc1Nc1nc(-c2cccnc2)nc2c1cnn2C    3.74% (inactive)
CCN(CCO)CCCOc1ccc2c(Nc3cc(CC(=O)Nc4cccc(F)c4)[nH]n3)ncnc2c1 [barasertib-HQPA]    -3.04% (inactive)
CC[C@H](C)n1cc(C)c2c(C(=O)NCc3c(C)cc(C)[nH]c3=O)cc(-c3ccc(N4CCNCC4)nc3)cc21    2.26% (inactive)
O=C(Nc1cc(C(F)(F)F)cc(C(F)(F)F)c1)c1cc(Cl)ccc1O [IKK-2-inhibitor-V]    1.55% (inactive)
CO/N=C(\C(=O)N[C@@H]1C(=O)N2C(C(=O)O)=CCS[C@H]12)c1csc(N)n1 [ceftizoxim]    -0.8% (inactive)

The recorded inhibition of SARS-CoV-2 cytopathic effect for "O=C(O)COc1ccc(/C=C2\SC(=O)NC2=O)cc1" is 5.3% (inactive)

Record CN[C@@H]1[C@@H](O[C@H]2O[C@H](CO)[C@@H](N)[C@H](O)[C@H]2O)O[C@H]2C[C@@H](N)[C@@H](O[C@H]3[C@H](O)[C@@H](O)[C@H](N)C[C@@H]3N)O[C@@H]2[C@@H]1O [apramycin] . Reported inhibition of SARS-CoV-2 cytopathic effect: -2.38% (inactive)

Lookup result for "O=C(Nc1ncc(SCCN2CCCC2)s1)[C@]1(c2ccc(S(=O)(=O)C3CC3)cc2)C[C@H]1C1CCCCC1" ; measured inhibition of SARS-CoV-2 cytopathic effect: -2.63% (inactive)

So, CCOC(=O)Nc1cc(-c2ccc(C)c(NS(C)(=O)=O)c2)nn2c(C)nnc12 [bromosporine] ? Its inhibition of SARS-CoV-2 cytopathic effect was -0.65% (inactive)

Summary for this compound, "Cc1[nH]c2ccc(F)cc2c1-c1nc2c3cccnc3c3ncccc3c2[nH]1" : inhibition of SARS-CoV-2 cytopathic effect is 0.29% (inactive)

Notebook: c1ccc(C(O[C@@H]2CCCN(CCc3ccc4c(c3)OCO4)C2)c2ccccc2)cc1 [zamifenacin] , inhibition of SARS-CoV-2 cytopathic effect read as 0.93% (inactive)

The reported inhibition of SARS-CoV-2 cytopathic effect of the compound CC(C)(N)Cc1ccccc1 [phentermine] was 2.37% (inactive)

Per the records, this compound ( CCOC(=O)OC(C)OC(=O)[C@@H]1N2C(=O)[C@@H](NC(=O)[C@H](N)c3ccccc3)[C@H]2SC1(C)C (stereo partly specified) [bacampicillin] ) has inhibition of SARS-CoV-2 cytopathic effect equal to -0.89% (inactive)

---

tested on: Vero E6 infected with SARS-CoV-2; assay: morphology score (similarity to uninfected cells); higher = more like uninfected cells; conditions: 24 h
# morphology score annotations

# annotated cases, reported morphology score shown
COc1cc(C)nc(-n2nc(C)cc2OC)n1 [epirizole] (10 µM)    0.0529
Cc1c(C(=O)Nc2ccc(N3C[C@@H](C)O[C@@H](C)C3)nc2)cccc1-c1ccc(OC(F)(F)F)cc1 [sonidegib] (10 µM)    -0.0039
CC(C)=CCC[C@](C)(O)[C@@H]1CC=C(C)CC1 [levomenol] (10 µM)    -0.0548
O=C(Nc1ccccc1)c1cc([N+](=O)[O-])ccc1Cl (10 µM)    0.103

So the reported morphology score for CC(C)c1ccc(NC(=O)Cn2cnc3c2c(=O)n(C)c(=O)n3C)cc1 (10 µM) , on Vero E6 infected with SARS-CoV-2, turned out to be 0.0452

The recorded morphology score with Vero E6 infected with SARS-CoV-2 for Nc1nc(=O)n([C@@H]2CS[C@H](CO)O2)cc1F [emtricitabine] (10 µM) was 0.154

Form: item Cc1cc(N2CCCCC2)nc2ccccc12 (10 µM) ; test system Vero E6 infected with SARS-CoV-2; morphology score: 0.282

Noted morphology score for CC1Oc2cc(cnc2N)-c2c(nn(C)c2C#N)CN(C)C(=O)c2ccc(F)cc21 (configuration not stated) (10 µM) , tested on Vero E6 infected with SARS-CoV-2: 0.32

The reported morphology score value, Vero E6 infected with SARS-CoV-2, for CC#CC(=O)N1CCC[C@H]1c1nc(-c2ccc(C(=O)Nc3ccccn3)cc2)c2c(N)nccn12 [acalabrutinib] (10 µM) reads -0.00394

morphology score on Vero E6 infected with SARS-CoV-2 for COc1ccc(C(=O)/C(Cc2cc(OC)c(OC)c(OC)c2)=C(\C(=O)O)c2ccc3c(c2)OCO3)cc1 (10 µM) is 0.489

Sample NS(=O)(=O)c1cc2c(cc1Cl)N=C(CSCc1ccccc1)NS2(=O)=O [benzthiazide] (10 µM) , system: Vero E6 infected with SARS-CoV-2. Its morphology score is -0.187

---

system: Vero E6 infected with SARS-CoV-2; experiment: inhibition of SARS-CoV-2 cytopathic effect; higher = more antiviral protection, active = above 15; conditions: 100 nM; 48 h
MEASURED QUANTITY: inhibition of SARS-CoV-2 cytopathic effect (%)
API: value field is a number in %; no unit string.

For record "CN(C)CCCN1c2ccccc2Sc2ccccc21" the listed inhibition of SARS-CoV-2 cytopathic effect is 0.93

The reported value for "O=c1cc(-c2ccccc2)oc2cc(O)c(O)c(O)c12" in terms of inhibition of SARS-CoV-2 cytopathic effect is -0.24

inhibition of SARS-CoV-2 cytopathic effect reading for "O=C(CCCl)NCCc1ccccc1" : 0.58

Form field inhibition of SARS-CoV-2 cytopathic effect, entry CN1C(CCl)Nc2cc(Cl)c(S(N)(=O)=O)cc2S1(=O)=O (stereo not given) [methyclothiazide] : 1.53

Record summary for "NC(N)=Nc1nc(CSCC/C(N)=N/S(N)(=O)=O)cs1" : reported inhibition of SARS-CoV-2 cytopathic effect = -0.39

---

test system: Vero E6 infected with SARS-CoV-2; experiment: inhibition of SARS-CoV-2 cytopathic effect; higher = more antiviral protection, active = above 15; details: 1 nM; 48 h
MEASURED QUANTITY: inhibition of SARS-CoV-2 cytopathic effect (%)
# number only, unit % dropped from output

Here are 3 compounds together with their reported answers.
C=CC(=O)Nc1cccc(Oc2nc(Nc3ccc(N4CCN(C)CC4)cc3)ncc2Cl)c1    -1.99
O=C(c1ccccc1)C(O)c1ccccc1 (stereo not given) [benzoin]    0.3
CCCCCCCCCCCCCCCC[n+]1ccn(Cc2ccccc2)c1C    -1.36

Noted inhibition of SARS-CoV-2 cytopathic effect for COc1cc2nc(N3CCN(C(=O)C4CCCO4)CC3)nc(N)c2cc1OC (stereo not given) [terazosin] , tested on Vero E6 infected with SARS-CoV-2: 1.36

Entry CN[C@H](C(=O)N[C@H](C(=O)N(C)[C@H](/C=C(\C)C(=O)O)C(C)C)C(C)(C)C)C(C)(C)c1ccccc1 [taltobulin] ; assay system Vero E6 infected with SARS-CoV-2; inhibition of SARS-CoV-2 cytopathic effect recorded at -0.53

---

Listing: SARS-CoV-2 infection rate of selected molecules
tested on: Vero E6 infected with SARS-CoV-2; assay: SARS-CoV-2 infection rate relative to infected DMSO; higher = more infection, active = 60 or less; conditions: 24 h
Your answer should be a plain number; it is taken to be in %.

// known answers, use as guide
CCOc1ccc(NC(C)=O)cc1 [phenacetin] (10 µM)    116
CO[C@@]1(NC(=O)CSCC#N)C(=O)N2C(C(=O)O)=C(CSc3nnnn3C)CS[C@@H]21 [cefmetazole] (10 µM)    98.5
O=C(O)CCCN1CCC(O[C@@H](c2ccc(Cl)cc2)c2ccccn2)CC1 [bepotastine] (10 µM)    90

# CCCC[C@@]1(C2CCCC2)Cc2cc(OCCCC(=O)O)c(Cl)c(Cl)c2C1=O (10 µM) with Vero E6 infected with SARS-CoV-2: SARS-CoV-2 infection rate is 92.5

Vero E6 infected with SARS-CoV-2 data for O=C(O)CCc1c(C(=O)O)[nH]c2cc(Cl)cc(Cl)c12 (10 µM) ; its SARS-CoV-2 infection rate: 104

Summary: O=C(NN1C(=O)[C@@H]2[C@@H]3C=C[C@@H]([C@H]4C[C@@H]34)[C@@H]2C1=O)c1ccc(C(F)(F)F)cc1 [tecovirimat] (10 µM) , Vero E6 infected with SARS-CoV-2, SARS-CoV-2 infection rate = 102

Observed SARS-CoV-2 infection rate, Vero E6 infected with SARS-CoV-2, CC(C)[C@H]1[C@@H]2CC[C@@H](C2)[C@@H]1N (10 µM) : 82

Value (SARS-CoV-2 infection rate, Vero E6 infected with SARS-CoV-2) for record O=c1cc(-c2ccccc2)oc2cc(O)cc(O)c12 [chrysin] (10 µM) = 104

For the molecule CN(C)c1ccc(-c2nc3c(N4CCN(CC(=O)Nc5nccs5)CC4)c(Cl)cnc3[nH]2)cc1 (10 µM) , the measured SARS-CoV-2 infection rate on Vero E6 infected with SARS-CoV-2 was 74.5

Kindly note: Vero E6 infected with SARS-CoV-2, CO/N=C(\C(=O)N[C@@H]1C(=O)N2C(C(=O)O)=C(CSC(=O)c3ccco3)CS[C@H]12)c1csc(N)n1 (10 µM) , SARS-CoV-2 infection rate value reported: 104

Measured SARS-CoV-2 infection rate for this entry O=C(Oc1ccc([N+](=O)[O-])cc1)N1CCN(Cc2cccc(Oc3ccccc3)c2)CC1 (10 µM) on Vero E6 infected with SARS-CoV-2: 95.5

Vero E6 infected with SARS-CoV-2 assay, molecule COc1ccc(C(=O)C2CCN(CC(=O)N(Cc3nc4c(c(=O)[nH]3)COCC4)CC3CC3)CC2)cc1 (10 µM) , recorded SARS-CoV-2 infection rate = 102

The reported Vero E6 infected with SARS-CoV-2 SARS-CoV-2 infection rate of Cc1ccc(-n2nc(C(C)(C)C)cc2NC(=O)Nc2ccc(OCCN3CCOCC3)c3ccccc23)cc1 [doramapimod] (10 µM) is 86

Per the reported Vero E6 infected with SARS-CoV-2 data, Cc1cccc(Nc2ccncc2S(=O)(=O)NC(=O)NC(C)C)c1 [torasemide] (10 µM) has SARS-CoV-2 infection rate of 102

Log: Vero E6 infected with SARS-CoV-2, molecule CCOc1nc2cccc(C(=O)O)c2n1Cc1ccc(-c2ccccc2-c2nnn[nH]2)cc1 [candesartan] (10 µM) , SARS-CoV-2 infection rate = 105

Tested on Vero E6 infected with SARS-CoV-2, the item Cc1ccccc1CN1C(=O)C2=C(CCN(Cc3ccccc3)C2)N2CCN=C12 (0.833333 µM) showed SARS-CoV-2 infection rate equal to 82

Field SARS-CoV-2 infection rate (system: Vero E6 infected with SARS-CoV-2) for entry O=C(O)c1ccc(CN2CCC(CN[C@@H]3C[C@H]3c3ccccc3)CC2)cc1 (10 µM) = 98
